Tested on: HS 578T breast
TEST_METHOD_NOTES: NCI tumour cell line growth inhibition, 48 h
Reported TGI by item:

Use these answered entries as a reference point.
- Nc1nc(N)c2cc(S(=O)(=O)c3cccc(C(F)(F)F)c3)ccc2n1: 49.7 µM
- CCOC(=O)CCCN: > 100 µM
- C/C(=C1\C(=O)Nc2ccccc21)c1cccc(/C(C)=C2/C(=O)Nc3ccccc32)n1: > 100 µM
- NC(=O)N/N=C(\Cc1cc(=O)oc2cc(O)ccc12)C(=O)Nc1ccccc1C(N)=O: > 100 µM
- Cc1cc(C)c2c(-c3ccccc3)cc(=O)[nH]c2c1: > 100 µM

Query: Tell me measured TGI for `[Cu].c1ccc2c(c1)C1=NC2=NC2=NC(=NC3=NC(=NC4=NC(=N1)c1ccccc14)c1ccccc13)c1ccccc12` please.
Reply: > 100 µM

Query: Tell me measured TGI for `Cn1c2ccccc2n2c(=O)c(-c3ccc(Cl)cc3)nnc12` please.
Reply: > 100 µM

Query: Tell me measured TGI for `Cc1c2ccccc2c(/C=N/NC(=O)CSCC(=O)N/N=C/c2c3ccccc3c(C)c3ccccc23)c2ccccc12` please.
Reply: > 100 µM

Query: Tell me measured TGI for `CCOP(=O)(OCC)/C(C#N)=C/c1nc[nH]c1C` please.
Reply: > 100 µM

Query: Tell me measured TGI for CN(C)CC1CCC/C(=C\c2ccc(Cl)c(Cl)c2)C1=O (stereo not given) please.
Reply: 9.51 µM
